Values from patent US20150368338A1

Some binders, each annotated with its measured Kd.
# ASSAYED SYSTEM: T1, IFN-αG (human, UniProt P01569 24-189)
# T1 construct: also called IFN-α5; alpha G
# PROCEDURE SUMMARY: ProteOn, one antigen concentration
Enter your answer as a number in nM; do not include the unit.

The cases that follow already have their Kd on record.
BINDER	Kd [nM]
IFWM3309 (antibody, V domains shown, VH IFWH591, VL IFWL1006; converted mAb; also called IFWB3044) VH: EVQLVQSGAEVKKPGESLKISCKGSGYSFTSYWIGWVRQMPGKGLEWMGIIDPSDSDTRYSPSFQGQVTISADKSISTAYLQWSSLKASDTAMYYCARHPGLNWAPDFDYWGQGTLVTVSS VL: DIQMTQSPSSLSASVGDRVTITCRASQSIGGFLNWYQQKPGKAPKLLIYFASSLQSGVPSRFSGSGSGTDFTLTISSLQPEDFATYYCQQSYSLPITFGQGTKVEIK	0.12
IFWM3314 (antibody, V domains shown, VH IFWH591, VL IFWL1014; converted mAb; also called IFWB3049) VH: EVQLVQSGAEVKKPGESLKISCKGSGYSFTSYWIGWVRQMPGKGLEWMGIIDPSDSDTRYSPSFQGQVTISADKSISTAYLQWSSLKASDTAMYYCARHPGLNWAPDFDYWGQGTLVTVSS VL: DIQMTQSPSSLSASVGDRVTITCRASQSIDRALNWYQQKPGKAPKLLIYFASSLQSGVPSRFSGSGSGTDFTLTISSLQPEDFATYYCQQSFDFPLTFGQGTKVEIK	0.028
IFWM3327 (antibody, V domains shown, VH IFWH591, VL IFWL1063; converted mAb; also called IFWB3062) VH: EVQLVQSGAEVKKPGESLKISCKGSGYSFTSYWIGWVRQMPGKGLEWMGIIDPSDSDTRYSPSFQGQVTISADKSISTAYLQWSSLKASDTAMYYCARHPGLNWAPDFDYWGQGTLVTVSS VL: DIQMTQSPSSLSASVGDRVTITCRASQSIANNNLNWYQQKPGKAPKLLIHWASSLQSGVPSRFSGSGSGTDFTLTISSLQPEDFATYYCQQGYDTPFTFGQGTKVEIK	0.035
IFWM3322 (antibody, V domains shown, VH IFWH591, VL IFWL1051; converted mAb; also called IFWB3057) VH: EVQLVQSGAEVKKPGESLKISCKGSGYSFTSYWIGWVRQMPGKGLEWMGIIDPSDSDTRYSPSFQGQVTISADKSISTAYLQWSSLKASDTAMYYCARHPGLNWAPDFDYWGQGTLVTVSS VL: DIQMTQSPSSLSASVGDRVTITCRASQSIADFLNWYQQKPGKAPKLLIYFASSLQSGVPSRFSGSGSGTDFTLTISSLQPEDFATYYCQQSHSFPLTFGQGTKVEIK	0.058

Could you now look at the following binder, please?
The value of Kd measured for the binder IFWM3291 (antibody, V domains shown, VH IFWH591, VL IFWL999; converted mAb; also called IFWB3026) VH: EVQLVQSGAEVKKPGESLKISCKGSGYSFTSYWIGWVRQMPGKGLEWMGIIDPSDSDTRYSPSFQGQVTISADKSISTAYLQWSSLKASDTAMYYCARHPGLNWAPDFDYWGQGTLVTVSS VL: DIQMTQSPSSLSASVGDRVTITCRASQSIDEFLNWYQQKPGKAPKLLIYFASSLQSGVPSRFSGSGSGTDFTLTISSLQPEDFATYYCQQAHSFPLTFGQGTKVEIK turned out to be 0.067
